# System tested: DRB1*0701
# Protocol details: binding to purified HLA
Metric name: IC50 (nM)
Give bare numbers, in nM.

> print(dat)
                        binder  metric.name  unit.descriptor  value.measured
1     AAAEFVAAWTLHAAA [E4.H12]         IC50               nM              97
2  AAAHFVAAFTLKAEA [H4.F9.E14]         IC50               nM              49
3  AAANFVAAYTLHAAA [N4.Y9.H12]         IC50               nM              67
4  AAAEFVAAYTLHAAA [E4.Y9.H12]         IC50               nM             161

Below: the item to evaluate.
# input In one line, give reported IC50 of the entry AAAHFVAANTLHAAA [H4.N9.H12] .
# output 76
